Assay system: Cytochrome P450 1A2 (Homo sapiens)
Protocol text: Cytochrome panel assay with activity outcomes
Experimental context: recombinant CYP, pro-luciferin dealkylation, luminescence, p450-cyp1a2; series mostly up to 57.1 µM
Among all 16,000 compounds or so, about 5,700 (36%) were called active. Inconclusive results (about 24%) are left out. Calls come from the whole dose curve; as a rule, active = well fitted curve in the direction sought with a large enough effect; inconclusive = small, poorly fitted or top-dose-only effect, or effect the other way; inactive = no such curve, though single readings can be large or run the other way. The list shows a part of the results.
Possible outcomes: active, inactive

Smiles data	Discrete label
COc1ccc2[nH]cc(CCNc3ncncc3-c3cccnc3)c2c1	active
COc1ccc(NC(=O)N2CC3(CCN(C(=O)c4c(C)noc4C)CC3)C2)cc1	inactive
Cc1cccc(Oc2ncnc3onc(C)c23)c1C	active
Cc1noc2ncnc(Oc3ccc4ccccc4c3)c12	active
O=C(CC1CCCC1)Nc1ccc2c(c1)CCC2	active
CN(C)c1ccc(-c2nccc(Nc3ccc(F)cc3)n2)cc1	active
